B1: Transcription intermediary factor 1-beta, residues 620 to 671; numbered along this chain, Q13263 (parent)
chain: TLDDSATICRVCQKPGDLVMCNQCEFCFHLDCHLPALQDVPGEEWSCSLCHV

# Variants of: B1
# experiment: abundance fitness (aPCA) (normalised: wild type 0, dead -1); higher = more abundant; growth selection in yeast, the domain comes from the species named
# test_parameters: Homo sapiens
measured_metric: abundance fitness
Answers are plain numbers.

I would be grateful if you could provide abundance fitness for each of the following entries.
1. E44C
2. G42V
3. H51E
4. L34C
5. W45Y

output:
0.058
-0.107
0.107
0.274
-0.202
